From: ChEMBL document CHEMBL4627411

- assay-info: Clearance in mouse at 0.5 mg/kg, iv
- Format: ADME, organism-based
- condition-description: in vivo
experimental-endpoint: clearance (mL/min/kg)
Write it as a number; the unit mL/min/kg goes unstated.

Documented clearance of C[C@H](c1ccc(Cl)cc1Cl)n1nc(C#N)c2ncc(N3CC([C@H]4CCCN(CCO)C4)C3)nc21 : 10.2

====

- assay-info: Half life in dog at 0.5 mg/kg, iv
- Type: ADME, organism-based, Canis lupus familiaris
- condition-description: in vivo
experimental-endpoint: half-life

half-life reported for this compound C[C@H](c1ccc(Cl)cc1Cl)n1nc(C#N)c2ncc(N3CC([C@H]4CCCN(CCO)C4)C3)nc21 : 12.7 h

====

- assay-info: Volume of distribution at steady state in mouse at 0.5 mg/kg, iv
- Type: ADME, organism-based
- condition-description: in vivo, read-out: Vdss
experimental-endpoint: Vd (L/kg)
Give just the number in L/kg; leave the unit off.

Quick note, Vd for C[C@H](c1ccc(Cl)cc1Cl)n1nc(C#N)c2ncc(N3CC([C@H]4CCCN(CCO)C4)C3)nc21 landed at 5.2

====

- assay-info: Oral bioavailability in dog at 2 mg/kg
- Type: ADME, organism-based, Canis lupus familiaris
- condition-description: in vivo
experimental-endpoint: bioavailability (%)
Use % as the unit, but write only the number.

Summary for this compound, C[C@H](c1ccc(Cl)cc1Cl)n1nc(C#N)c2ncc(N3CC([C@H]4CCCN(CCO)C4)C3)nc21 : bioavailability is 44

====

- target-system: CYP3A4 (Homo sapiens, UniProt P08684)
- Sequence (P08684 whole entry): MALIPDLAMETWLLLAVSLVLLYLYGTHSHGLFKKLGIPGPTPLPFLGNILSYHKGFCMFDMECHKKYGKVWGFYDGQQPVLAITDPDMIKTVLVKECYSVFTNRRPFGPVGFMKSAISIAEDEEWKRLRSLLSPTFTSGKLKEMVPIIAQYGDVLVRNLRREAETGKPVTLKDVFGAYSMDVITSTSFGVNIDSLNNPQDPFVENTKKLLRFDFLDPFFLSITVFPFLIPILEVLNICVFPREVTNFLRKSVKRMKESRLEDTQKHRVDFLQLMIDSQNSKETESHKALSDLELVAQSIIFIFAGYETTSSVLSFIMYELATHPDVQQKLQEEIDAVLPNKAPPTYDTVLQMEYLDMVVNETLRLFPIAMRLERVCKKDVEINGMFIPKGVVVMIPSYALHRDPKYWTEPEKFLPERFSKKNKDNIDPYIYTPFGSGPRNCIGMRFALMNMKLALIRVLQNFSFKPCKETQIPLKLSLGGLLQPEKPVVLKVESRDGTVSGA
- assay-info: Ratio of IC50 for time-dependent inhibition of CYP3A4 in human liver microsomes using midazolam hydrochloride as substrate in presence of NADPH to IC50 for time-dependent inhibition of CYP3A4 in human liver microsomes using midazolam hydrochloride as substrate absence of NADPH
- condition-description: probe midazolam hydrochloride, read-out: Ratio IC50
experimental-endpoint: IC50 shift

| structure-notation | IC50 shift |
| --- | --- |
| C[C@H](c1ccc(Cl)cc1Cl)n1nc(C#N)c2ncc(N3CC([C@H]4CCCN(CCO)C4)C3)nc21 | 1.2 |

Briefly, IC50 shift measured for Cc1nn([C@H](C)c2ccc(Cl)cc2Cl)c2nc(N3CC([C@H]4CCCN(CCO)C4)C3)cnc12 : 2.6

====

This listing pairs molecules with measured log10 of IC50.
- target-system: C-C chemokine receptor type 4 (Homo sapiens, UniProt P51679)
- Sequence (P51679 whole entry): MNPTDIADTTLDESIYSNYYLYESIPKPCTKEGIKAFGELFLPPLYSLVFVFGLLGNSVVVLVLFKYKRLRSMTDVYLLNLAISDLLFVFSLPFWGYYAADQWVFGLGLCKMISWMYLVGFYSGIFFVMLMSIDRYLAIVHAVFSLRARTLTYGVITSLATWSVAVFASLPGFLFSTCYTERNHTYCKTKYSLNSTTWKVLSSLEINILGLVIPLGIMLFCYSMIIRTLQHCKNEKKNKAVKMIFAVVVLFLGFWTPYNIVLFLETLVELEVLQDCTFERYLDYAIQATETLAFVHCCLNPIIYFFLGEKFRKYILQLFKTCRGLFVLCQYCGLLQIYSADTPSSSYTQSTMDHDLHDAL
- assay-info: Antagonist activity at human CCR4 expressed in rat chem-5 cells assessed as inhibition of CCL22-induced calcium flux measured at 2.5 secs time interval for 45 secs by calcium 6 dye-based FLIPR assay
Record value = log10 of IC50 given in nM.

| molecule | measurement |
| --- | --- |
| C[C@H](c1ccc(Cl)cc1Cl)n1nc(C#N)c2ncc(N3CC([C@H]4CCCN(Cc5cnc[nH]5)C4)C3)nc21 | 1.32 |

log10 of IC50 for C[C@H](c1ccc(Cl)cc1Cl)n1nc(C(=O)N(C)C)c2ncc(N3CC([C@H]4CCCN(CCO)C4)C3)nc21 is 0.95

====

Below: a set of entries, each annotated with reported pIC50.
- target-system: Cytochrome P450 2D6 (Homo sapiens)
- Sequence (P10635 whole entry): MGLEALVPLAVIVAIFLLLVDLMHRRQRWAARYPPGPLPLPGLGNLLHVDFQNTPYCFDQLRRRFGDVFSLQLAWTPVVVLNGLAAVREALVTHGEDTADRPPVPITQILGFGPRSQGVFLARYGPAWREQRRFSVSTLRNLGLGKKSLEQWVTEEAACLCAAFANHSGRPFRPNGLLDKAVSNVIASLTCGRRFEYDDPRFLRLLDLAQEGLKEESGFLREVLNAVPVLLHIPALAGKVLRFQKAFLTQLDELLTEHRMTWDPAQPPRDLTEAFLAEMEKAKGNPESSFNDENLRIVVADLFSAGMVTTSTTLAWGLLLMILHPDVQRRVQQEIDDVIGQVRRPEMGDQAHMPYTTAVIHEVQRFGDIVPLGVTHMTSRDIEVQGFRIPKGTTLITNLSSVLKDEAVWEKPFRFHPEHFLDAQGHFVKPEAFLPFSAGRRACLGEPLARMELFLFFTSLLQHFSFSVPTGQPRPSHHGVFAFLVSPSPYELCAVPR
pIC50: −log10 of the molar value.

| structure-notation | target-system | pIC50 |
| --- | --- | --- |
| C[C@H](c1ccc(Cl)cc1Cl)n1nc(C#N)c2ncc(N3CC([C@H]4CCCN(CCO)C4)C3)nc21 | Cytochrome P450 2D6 (Homo sapiens) | < 4.40 |

Measured on Cytochrome P450 2D6 (Homo sapiens), Cc1nn([C@H](C)c2ccc(Cl)cc2Cl)c2nc(N3CC([C@H]4CCCN(CCO)C4)C3)cnc12 has a documented pIC50 of < 4.40
